target: MaxL (human? (HeLa cDNA), UniProt P61244 1-160); test: EMSA; 0.01 nM probe; MaxL homodimer; EMSA: 25 mM HEPES pH 7.6, 100 mM KCl, 1 mM DTT, 0.1 mM EDTA, 0.01% Triton, 30 min at room temperature; 6% polyacrylamide gel in 0.5X Tris/glycine; conditions: protein: recombinant; tags: C-terminal His-tag (pET21a); chain copies: 2; unlabeled in silver-stained EMSA
Sequence (P61244 whole entry): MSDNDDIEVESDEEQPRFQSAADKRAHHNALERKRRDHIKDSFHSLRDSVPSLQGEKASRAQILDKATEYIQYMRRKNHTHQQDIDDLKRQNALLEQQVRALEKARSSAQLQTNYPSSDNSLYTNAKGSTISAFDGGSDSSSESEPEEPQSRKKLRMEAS
Parameter: Kd (nM)
Give bare numbers, in nM.

Could you tell me which Kd is on file for CACGTG probe (26 bp) (dsDNA) DNA 1: GAGGGATCGGCACGTGGGATCGGAGG DNA 2: CCTCCGATCCCACGTGCCGATCCCTC ?
0.4
